Target: SARS2 protease (Severe acute respiratory syndrome coronavirus 2)
Test: SARS-CoV-2 protease inhibition assay (SARS2 FRET protease assay)
Type: biochemical
Settings: SARS-CoV-2 protease 25 nM, FRET, peptide substrate 1.3 μM, 30 minutes at 30° C., compounds 20 μM to 1.0 nM; read-out: IC50
readout: IC50 (nM)
Kindly provide the numeric value in nM only, without the unit symbol.

stdin: Query (compound): CC(C)C(C)(C)C(NC(=O)OCc1ccccc1)C(=O)N[C@H](C=O)C[C@@H]1CCNC1=O (stereo partly shown) ; field requested: IC50
stdout: 868

stdin: Sample CC(C)C[C@H](NC(=O)OC(c1ccccc1)C(C)(C)c1cccc(Cl)c1)C(=O)N[C@@H](C[C@@H]1CCNC1=O)C(=O)C(=O)N1CCNCC1 (stereo partly shown) — what was its IC50?
stdout: 12000

stdin: Please report the recorded IC50 for CC(C)C[C@H](NC(=O)OC(c1cccc(Cl)c1)C(C)(C)c1cccc(Cl)c1)C(=O)N[C@@H](C[C@@H]1CCNC1=O)C(=O)C(=O)NC1CC1 (stereo partly shown) .
stdout: 70

stdin: Look at this compound and give its reported IC50. O=CC(CC1CC(Cc2ccccc2)NC1=O)NC(=O)[C@H](CC1CCCCC1)NC(=O)OCc1cccc(Cl)c1 (stereo partly shown)
stdout: 500

stdin: Need IC50 of COc1cccc2[nH]c(C(=O)N[C@@H](CC3CCCCC3)C(=O)NC(C=O)CC3CC4(CCCCC4)NC3=O)cc12 (stereo partly shown) , thanks.
stdout: 0.7

stdin: Which measured IC50 value corresponds to CC(C)(c1cccc(Cl)c1)C(OC(=O)N[C@@H](Cc1ccccc1)C(=O)N[C@@H](C[C@@H]1CCNC1=O)C(=O)C(N)=O)c1ccccc1 (stereo partly shown) ?
stdout: 4270

stdin: Consider the compound shown here: "CC(C)C[C@H](NC(=O)O[C@@H](c1cccc(F)c1)C(C)(C)c1cccc(Cl)c1)C(=O)N[C@@H](C[C@@H]1CCNC1=O)C(=O)C(=O)NC1CC1" What is its recorded IC50?
stdout: 80

stdin: For the compound CCCCC[C@H](NC(=O)OC(c1ccccc1)C(C)(C)c1cccc(Cl)c1)C(=O)N[C@@H](C[C@@H]1CCNC1=O)C(=O)C(=O)NC1CC1 (stereo partly shown) , what IC50 is on record?
stdout: 370

stdin: Need IC50, item CC(C)C[C@H](NC(=O)OC(c1ccccc1)C(F)(F)c1cccc(Cl)c1)C(=O)N[C@@H](C[C@@H]1CCNC1=O)C(=O)CO (stereo partly shown)
stdout: 6590

stdin: Look up IC50 for this compound: O=C(N[C@@H](CC1CCCCC1)C(=O)N[C@@H](C[C@@H]1CC2(CCCC2)NC1=O)C(=O)C(=O)NC1CC1)OC1CCCC1Cc1cccc(Cl)c1 (stereo partly shown)
stdout: 3490

stdin: Report IC50 for "CS(=O)(=O)N1CCC(OC(=O)N[C@@H](CC2CCCCC2)C(=O)N[C@H](C=O)CCC(=O)N2CCOc3ccccc3C2)CC1" please.
stdout: 42300

stdin: Please look up its IC50: CC(C)C[C@H](NC(=O)OC1CCCC1Cc1ccccc1)C(=O)N[C@H](C=O)C[C@@H]1CCNC1=O (stereo partly shown)
stdout: 56

###

Examples of compounds with documented log10(IC50) follow.
Target: SARS2 protease (Severe acute respiratory syndrome coronavirus 2)
Test: SARS-CoV-2 protease inhibition assay (SARS2 FRET protease assay)
Format: biochemical
Conditions: SARS-CoV-2 protease 25 nM, FRET, peptide substrate 1.3 μM, 30 minutes at 30° C., compounds 20 μM to 1.0 nM; read-out: IC50
Please note: log10 values; quantity IC50; unit nM.

Below are worked cases with known answers.
O=CC(CC1CC2(CCOCC2)NC1=O)NC(=O)[C@H](CC1CCCCC1)NC(=O)OC1CCCC1Cc1cccc(Cl)c1 (stereo partly drawn) [Compound C225] : 3.00
CC(C)C[C@H](NC(=O)OC(c1cccc(Cl)c1)C(F)(F)c1cccc(Cl)c1)C(=O)N[C@H](C=O)C[C@@H]1CCNC1=O (stereo partly drawn) [Compound C266] : 1.30

stdin: # get_value(readout='log10(IC50)', item= CC(C)C[C@H](NC(=O)OC(c1ccccc1)C(C)(C)c1cccc(Cl)c1)C(=O)N[C@@H](CC1CC(C)(C)NC1=O)C(=O)C(=O)NC1CC1 (stereo partly drawn) [Compound C163] )
stdout: 3.26

stdin: Need log10(IC50) of CC(C)(c1cccc(Cl)c1)C(OC(=O)N[C@@H](CC1CCCCC1)C(=O)N[C@@H](C[C@@H]1CCNC1=O)C(=O)C(N)=O)c1ccccc1 (stereo partly drawn) [Compound C113] , thanks.
stdout: 2.12

stdin: I would be grateful if you could share the reported log10(IC50) for CC(=O)N1CCC2(CC1)C[C@H](C[C@H](NC(=O)[C@H](CC1CCCCC1)NC(=O)c1cc3ccccc3[nH]1)C(=O)C(N)=O)C(=O)N2 [Compound C125] .
stdout: 1.30

stdin: Quick check: log10(IC50) of CCCC[C@H](NC(=O)OC(c1ccccc1)C(C)(C)c1cccc(Cl)c1)C(=O)N[C@H](C=O)C[C@@H]1CCNC1=O (stereo partly drawn) [Compound C157] ?
stdout: -1.00

stdin: Value lookup for log10(IC50); key = O=C(N[C@@H](CC1CCCCC1)C(=O)N[C@@H](C[C@@H]1CCNC1=O)C(=O)C(=O)NC1CC1)OCc1cccc(Cl)c1 [Compound C154]
stdout: 3.17

stdin: Please look up its log10(IC50): O=C(O)C(=O)C(CC1CC2(CCCCC2)NC1=O)NC(=O)[C@H](CC1CCCCC1)NC(=O)c1cc2ccccc2[nH]1 (stereo partly drawn) [Compound C228]
stdout: 2.08

stdin: Please report the recorded log10(IC50) for O=CC(CC1CC2(CCCCC2)NC1=O)NC(=O)[C@H](CC1CCCCC1)NC(=O)OC1CCCC1Cc1cccc(Cl)c1 (stereo partly drawn) [Compound C223] .
stdout: 2.89

stdin: I'd like to know its log10(IC50). The compound in question is CC1(C)CC(CC(NC(=O)[C@H](CC2CCCCC2)NC(=O)c2cc3ccccc3[nH]2)C(=O)C(N)=O)C(=O)N1 (stereo partly drawn) [Compound C123]
stdout: 2.47

###

Target: UniProtKB P0DTD1
Test: SARS-CoV-2 protease inhibition assay (SARS2 FRET protease assay)
Assay type: biochemical
Conditions: SARS-CoV-2 protease 25 nM, FRET, peptide substrate 1.3 μM, 30 minutes at 30° C., compounds 20 μM to 1.0 nM; read-out: IC50
readout: IC50

Consider the reported IC50 for these compounds:
CC(C)(c1cccc(Cl)c1)C(OC(=O)N[C@@H](CC1CCCCC1)C(=O)N[C@@H](C[C@@H]1CCNC1=O)C(=O)C(=O)NC1CC1)c1ccccc1Cl (some centres unmarked) [Compound C186] : 1240 nM
CC(C)C[C@H](NC(=O)OC1CCN(C(=O)OC(C)(C)C)c2ccccc21)C(=O)N[C@@H](C[C@@H]1CCNC1=O)C(=O)C(=O)NCc1ccccn1 (some centres unmarked) [Compound C86] : 900 nM
CCCOC(=O)N[C@@H](CC1CCCCC1)C(=O)N[C@H](C=O)CCC(=O)N1CCOc2ccccc2C1 [Compound C18] : 49300 nM
CC(C)(c1cccc(Cl)c1)C(OC(=O)N[C@@H](CC1CCCCC1)C(=O)N[C@H](C=O)C[C@@H]1CCNC1=O)c1ccc(Cl)cc1 (some centres unmarked) [Compound C143] : 3.6 nM

stdin: Form field: IC50 recorded for O=C(N[C@@H](CC1CCCCC1)C(=O)N[C@@H](C[C@@H]1CCNC1=O)C(=O)C(=O)NC1CC1)OC(Cc1cccc(Cl)c1)c1ccccc1 (some centres unmarked) [Compound C158] with UniProtKB P0DTD1 (enter value)
stdout: 2610 nM

stdin: Hi! What's the reported IC50 for CC(C)(c1cccc(Cl)c1)C(OC(=O)N[C@@H](CC1CCCCC1)C(=O)N[C@@H](C[C@@H]1CCNC1=O)C(=O)C(=O)NC1CC1)c1ccccc1 (some centres unmarked) [Compound C148] on UniProtKB P0DTD1?
stdout: 973 nM

###

Target: UniProtKB P0DTD1
Experiment: SARS-CoV-2 protease inhibition assay (SARS2 FRET protease assay)
Format: biochemical
Details: SARS-CoV-2 protease 25 nM, FRET, peptide substrate 1.3 μM, 30 minutes at 30° C., compounds 20 μM to 1.0 nM; read-out: IC50
readout: IC50 (nM)
Write down the numeric answer in nM and omit the unit.

For orientation, consider the following solved cases.
CC(C)C[C@H](NC(=O)OC(c1ccc(F)cc1)C(C)(C)c1cccc(Cl)c1)C(=O)N[C@@H](C[C@@H]1CCNC1=O)C(=O)C(=O)NC1CC1 (stereo partly drawn) : 80
CC(C)C[C@H](NC(=O)OC1CCCC1Cc1cccc(Cl)c1)C(=O)N[C@@H](C[C@@H]1CCNC1=O)C(=O)C(=O)NC1CC1 (stereo partly drawn) : 108
CC(C)C[C@H](NC(=O)OCC(C)(C)c1cccc(Cl)c1)C(=O)N[C@@H](C[C@@H]1CCNC1=O)C(=O)C(=O)NC1CC1 : 700
O=C(N[C@@H](CC1CCCCC1)C(=O)N[C@@H](C[C@@H]1CCNC1=O)C(=O)C(=O)NC1CC1)OC(c1cccc(Cl)c1)C1(c2cccc(Cl)c2)CC1 (stereo partly drawn) : 257
CC(C)C[C@H](NC(=O)OC(Cc1ccccc1)c1ccccc1)C(=O)N[C@@H](C[C@@H]1CCNC1=O)C(=O)C(N)=O (stereo partly drawn) : 1000
CC(C)C[C@H](NC(=O)OC(Cc1cccc(Cl)c1)c1cccc(Cl)c1)C(=O)N[C@H](C=O)C[C@@H]1CCNC1=O (stereo partly drawn) : 40

stdin: Recorded IC50 for CC(C)C[C@H](NC(=O)OC1(Cc2cccc(OCc3ccccc3)c2)CC1)C(=O)N[C@@H](CC1CCNC1=O)C(O)S(=O)(=O)O (stereo partly drawn) , please?
stdout: 380

stdin: Query: IC50; subject: CCCC[C@H](NC(=O)OC(c1ccccc1)C(C)(C)c1cccc(Cl)c1)C(=O)N[C@@H](CC1CCNC1=O)C(=O)C(=O)NC1CC1 (stereo partly drawn)
stdout: 8.2

stdin: IC50 for CC(=O)N1CCC2(CC1)CC(CC(C=O)NC(=O)[C@H](CC1CCCCC1)NC(=O)OCc1cccc(Cl)c1)C(=O)N2 (stereo partly drawn) ?
stdout: 23

stdin: Fill in: IC50 of CC(C)C[C@H](NC(=O)OC(Cc1cccc(Cl)c1)c1ccccc1)C(=O)N[C@@H](C[C@@H]1CCNC1=O)C(=O)C(=O)NC1CC1 (stereo partly drawn) is ___
stdout: 3000

stdin: Data request, read-out IC50, for COc1cccc2[nH]c(C(=O)N[C@@H](CC(C)C)C(=O)NC(CC3CC4(CCCCC4)NC3=O)C(=O)CCl)cc12 (stereo partly drawn)
stdout: 59

stdin: # query: IC50 of entry CC(C)C[C@H](NC(=O)OC(c1ccccc1)C(F)(F)c1cccc(Cl)c1)C(=O)N[C@@H](C[C@@H]1CCNC1=O)C(=O)C(N)=O (stereo partly drawn)
stdout: 0.008
